biological target: PCSK9 (UniProt Q8NBP7 31-692, limits assumed); test: cell-based or functional assay
Sequence (Q8NBP7 31-692 limits assumed): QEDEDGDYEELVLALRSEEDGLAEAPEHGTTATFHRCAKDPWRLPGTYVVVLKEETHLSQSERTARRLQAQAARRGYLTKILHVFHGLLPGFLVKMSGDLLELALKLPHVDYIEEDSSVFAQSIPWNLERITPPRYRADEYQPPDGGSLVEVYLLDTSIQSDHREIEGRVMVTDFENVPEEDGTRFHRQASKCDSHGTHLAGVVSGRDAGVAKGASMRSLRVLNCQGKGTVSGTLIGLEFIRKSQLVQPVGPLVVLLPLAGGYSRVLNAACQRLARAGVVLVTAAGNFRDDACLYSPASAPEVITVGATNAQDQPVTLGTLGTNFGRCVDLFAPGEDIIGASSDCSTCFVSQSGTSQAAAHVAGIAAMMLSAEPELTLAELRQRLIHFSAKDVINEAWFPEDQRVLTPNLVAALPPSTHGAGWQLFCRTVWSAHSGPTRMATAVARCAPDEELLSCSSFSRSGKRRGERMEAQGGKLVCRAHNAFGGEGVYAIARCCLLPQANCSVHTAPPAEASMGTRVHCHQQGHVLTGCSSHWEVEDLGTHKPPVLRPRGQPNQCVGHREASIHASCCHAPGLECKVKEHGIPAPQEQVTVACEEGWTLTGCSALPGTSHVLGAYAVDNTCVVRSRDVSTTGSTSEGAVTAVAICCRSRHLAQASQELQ
Items are presented alongside their recorded EC50 value of bioactivity testing (BODIPY-LDL uptake in HepG2 cells, RFU).
Give the figure together with its unit, number first.

Record excerpt, results attached:
[[record]]
binder = "DFSK9-13 complete antibody (antibody, V domains shown) VH: QVQLVQSGAEVKKPGASVKVSCKASGYSLTSYGISWVRQAPGQGLEWMGWVSFYQGNTNYAQKLQGRGTMTTDPSTSTAYMELRSLRSDDTAVYYCARGYGMTVWGQGTTVTVSS VL: DIQMTQSPSSLSASVGDRVTITCRASQDVDSWLTWYQQKPGKAPKLLIYGASNLASGVPSRFSGSGSGTDFTLTISSLQPEDFATYYCQQDSKIPLTFGQGTKVEIK"
experimental_value = "29.6 nmol/L"

[[record]]
binder = "DFSK9-16 complete antibody (antibody, V domains shown) VH: QVQLVQSGAEVKKPGASVKVSCKASGYTVTSYGISWVRQAPGQGLEWMGWVSFYQGNTNYAQKLQGRGTMTTDPSTSTAYMELRSLRSDDTAVYYCARGFGMDRWGQGTTVTVSS VL: DIQMTQSPSSLSASVGDRVTITCRASQNINSWLNWYQQKPGKAPKLLIYGASSRQSGVPSRFSGSGSGTDFTLTISSLQPEDFATYYCQQWFDVPTTFGQGTKVEIK"
experimental_value = "23.8 nmol/L"


Reported EC50 value of bioactivity testing (BODIPY-LDL uptake in HepG2 cells, RFU) for DFSK9-18 complete antibody (antibody, V domains shown) VH: QVQLVQSGAEVKKPGASVKVSCKASGYTVTSYGISWVRQAPGQGLEWMGWVSFYNGNSNYAQKLQGRGTMTTDPSTSTAYMELRSLRSDDTAVYYCARGYSLDVWGQGTTVTVSS VL: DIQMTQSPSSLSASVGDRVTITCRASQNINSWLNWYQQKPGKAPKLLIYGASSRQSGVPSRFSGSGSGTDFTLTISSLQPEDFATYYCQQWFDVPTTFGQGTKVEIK was 23.9 nmol/L
